Assay: Rat pharmacokinetics, oral administration
Assay type: in vivo
Settings: rat, in vivo, po, 20 mg/kg, Rat 3

{"cpd_smiles": "O=C(Nc1ccc2sc(-c3ccc(F)c(F)c3)nc2c1)N1CC[C@H](F)C1", "output_unit": "h", "Tmax": 8}

* * *

Assay: Rat pharmacokinetics, intravenous administration
Type: in vivo
Details: rat, plasma, iv, 5 mg/kg, Rat 1, read-out: Plasma Vss
value_type: Vd (L/kg)

{"cpd_smiles": "O=C(Nc1ccc2sc(-c3ccc(F)c(F)c3)nc2c1)N1CC[C@H](F)C1", "value_type": "Vd", "output_unit": "L/kg", "result": 1.32}

* * *

Property: EC50; scope: individual compounds
Test system: T. b. brucei
Experiment: In vitro antitrypanosomal activity against T. brucei (growth inhibition)
Format: cell-based, Trypanosoma brucei
Settings: Trypanosoma brucei; Table 9; read-out: T. brucei EC50
value_type: EC50 (µM)

{"compound": "O=C(Nc1ccc2sc(-c3cccc(F)c3)nc2c1)N1CCCC1", "reported_relation": "=", "result": 0.158}
{"compound": "O=C(Nc1ccc2sc(-c3cccc(F)c3F)nc2c1)N1CCCC1", "reported_relation": "=", "result": 0.183}
{"compound": "O=C(Nc1ccc2sc(-c3ccccc3F)nc2c1)N1CCCCC1", "reported_relation": "=", "result": 0.935}
{"compound": "O=C(Nc1ccc2sc(-c3ccc(F)c(F)c3)nc2c1)N1CCC(F)C1 (racemic)", "reported_relation": "=", "result": 0.0519}
{"compound": "O=C(Nc1ccc2sc(-c3ccc(F)c(F)c3)nc2c1)N1CCCC1", "reported_relation": "=", "result": 0.0918}
{"compound": "O=C(Nc1ccc2sc(-c3ccc(F)c(F)c3)nc2c1)N1C[C@@H](F)[C@H](F)C1", "reported_relation": "=", "result": 0.114}
{"compound": "O=C(Nc1ccc2sc(-c3ccccc3)nc2c1)c1cccs1", "reported_relation": "=", "result": 0.882}
{"compound": "O=C(Nc1ccc2sc(-c3ccccc3)nc2c1)c1ccsc1", "reported_relation": "=", "result": 1.57}
{"compound": "O=C(Nc1ccc2sc(-c3ccccc3)nc2c1)c1cscn1", "reported_relation": ">", "result": 10}
{"compound": "O=C(Nc1ccc2oc(-c3ccccc3)nc2c1)N1CCCCC1", "reported_relation": "=", "result": 2.8}
{"compound": "O=C(Nc1ccc2sc(-c3ccc(F)c(F)c3)nc2c1)N1CCC(F)(F)CC1", "reported_relation": "=", "result": 2.98}

* * *

Assay: Mouse oral pharmacokinetics
Assay type: in vivo
Settings: Table 13; mice, single 50 mg/kg oral gavage; vehicle Phosal 53 MCT(60%), PEG400 (30%), EtOH (10%); read-out: Cmax

{"cpd_smiles": "O=C(Nc1ccc2sc(-c3ccc(F)c(F)c3)nc2c1)N1CC[C@H](F)C1", "Cmax [µM]": 18.6}

* * *

Tested on: T. b. brucei
Experiment: In vitro antitrypanosomal activity against T. brucei (growth inhibition)
Format: cell-based, Trypanosoma brucei
Conditions: Trypanosoma brucei; Table 9; read-out: T. brucei EC50
pEC50: −log10 of the molar value.
Property: pEC50; scope: individual compounds

{"compound": "COC1CCN(C(=O)Nc2ccc3sc(-c4ccc(F)c(F)c4)nc3c2)C1 (stereo not drawn)", "reported_relation": "=", "pEC50": 5.52}
{"compound": "O=C(Nc1ccc2sc(-c3ccccc3)nc2c1)N1CCSC1", "reported_relation": "=", "pEC50": 5.91}
{"compound": "N#CC1CCN(C(=O)Nc2ccc3sc(-c4ccc(F)c(F)c4)nc3c2)C1 (stereo not drawn)", "reported_relation": "=", "pEC50": 5.55}
{"compound": "O=C(Nc1ccc2sc(-c3ccc(F)cc3)nc2c1)c1ccccc1", "reported_relation": "=", "pEC50": 5.72}
{"compound": "O=C(Nc1ccc2sc(-c3ccc(F)c(F)c3)nc2c1)N1CCC(O)C1 (stereo not drawn)", "reported_relation": "=", "pEC50": 5.11}
{"compound": "O=C(Nc1ccc2sc(-c3cccc(F)c3)nc2c1)N1CCN(C(=O)Nc2ccc3sc(-c4cccc(F)c4)nc3c2)CC1", "reported_relation": "<", "pEC50": 4.70}
{"compound": "O=C(Nc1ccc2sc(-c3ccc(F)c(F)c3)nc2c1)N1CCCCC1", "reported_relation": "=", "pEC50": 6.65}
{"compound": "O=C(Nc1ccc2sc(-c3ccc(F)c(F)c3)nc2c1)N1CC[C@H](F)C1", "reported_relation": "=", "pEC50": 7.46}
{"compound": "CN1CCN(C(=O)Nc2ccc3sc(-c4cccc(F)c4)nc3c2)CC1", "reported_relation": "=", "pEC50": 5.50}
{"compound": "O=C(Nc1ccc2sc(-c3ccc(F)cc3)nc2c1)N1CCCCC1", "reported_relation": "=", "pEC50": 6.37}
{"compound": "CN(C)C1CCN(C(=O)Nc2ccc3sc(-c4ccc(F)c(F)c4)nc3c2)C1 (stereo not drawn)", "reported_relation": "=", "pEC50": 5.77}
{"compound": "O=C(Nc1ccc2sc(-c3ccccc3)nc2c1)N1CC=CCC1", "reported_relation": "=", "pEC50": 5.95}
{"compound": "O=C(Nc1ccc2sc(-c3ccc(F)c(F)c3)nc2c1)N1CCC(F)CC1", "reported_relation": "=", "pEC50": 6.47}
{"compound": "O=C(Nc1ccc2sc(-c3ccc(F)c(F)c3)nc2c1)N1CCC(F)(F)C1", "reported_relation": "=", "pEC50": 6.03}
{"compound": "O=C(Nc1ccc2sc(-c3ccccc3)nc2c1)N1CCCCC1", "reported_relation": "=", "pEC50": 6.44}
{"compound": "O=C(Nc1ccc2sc(-c3ccccc3)nc2c1)N1CCCC1", "reported_relation": "=", "pEC50": 6.49}
{"compound": "O=C(Nc1ccc2sc(-c3ccc(F)cc3)nc2c1)N1CCCC1", "reported_relation": "=", "pEC50": 6.43}
{"compound": "O=C(Nc1ccc2sc(-c3ccccc3)nc2c1)c1ccccc1", "reported_relation": "=", "pEC50": 5.62}
